Assay: conversion test to the parent drug (alprenolol) in buffer solution having the pH of 7.4
Format: physicochemical
Conditions: hydrochloride, Britton-Robinson buffer pH 7.4, 37° C.; read-out: Half-life time (T 1/2) (converted)
Structures can show the parent of a compound that is named as a salt.
Give measured half-life for each item. Keep answers brief.
Give the value; after it, write the unit.

C=CCc1ccccc1OCC(CNC(C)C)OC(=O)CCC(=O)O (stereo not shown) [(1)] has a reported half-life of 444 min

Measured half-life of C=CCc1ccccc1OCC(CNC(C)C)OC(=O)CCCC(=O)O (stereo not shown) [(2), hydrochloride] : 294 min

For this molecule ( C=CCc1ccccc1OCC(CNC(C)C)OC(=O)CCCC(=O)OCC (stereo not shown) [(3)] ), measured half-life is 78 min

Sample C=CCc1ccccc1OCC(CNC(C)C)OC(=O)/C=C\C(=O)O (stereo not shown) [(4)] ; half-life observed: 54 min

----------
Test: conversion test to the parent drug (alprenolol) in buffer solution having the pH of 7.4
Assay type: physicochemical
Conditions: hydrochloride, Britton-Robinson buffer pH 7.4, 37° C.; unit assumed
Structures can show the parent of a compound that is named as a salt.
MEASURE: 50% producing time of the parent drug (T' 1/2) (h)
Number in h, nothing else.

Looking up C=CCc1ccccc1OCC(CNC(C)C)OC(=O)/C=C\C(=O)O (stereo not shown) [(4)] , I see its 50% producing time of the parent drug (T' 1/2) listed as 3

The compound listed as C=CCc1ccccc1OCC(CNC(C)C)OC(=O)CCCC(=O)OCC (stereo not shown) [(3)] shows 50% producing time of the parent drug (T' 1/2) equal to 2

The compound identified as C=CCc1ccccc1OCC(CNC(C)C)OC(=O)CCC(=O)O (stereo not shown) [(1)] registered its 50% producing time of the parent drug (T' 1/2) at 5

50% producing time of the parent drug (T' 1/2) reported for this compound C=CCc1ccccc1OCC(CNC(C)C)OC(=O)CCCC(=O)O (stereo not shown) [(2), hydrochloride] : 5
